These data points were gathered from the Human Domainome abundance scans (Beltran et al. 2025).

B1: Double-stranded RNA-binding protein Staufen homolog 1, residues 183 to 249; numbered along this chain, O95793 (parent)
chain: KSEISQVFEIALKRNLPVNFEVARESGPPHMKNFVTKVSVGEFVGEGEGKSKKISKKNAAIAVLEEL

variants of: B1; assay: abundance fitness (aPCA) (normalised: wild type 0, dead -1); higher = more abundant; growth selection in yeast, the domain comes from the species named; settings: Homo sapiens
Consider the following variants; for each one, report its abundance fitness.
Answers are plain numbers.

Look over these answered cases.
1. KSEISQVFEIALKRNLPGNFEVARESGPPHMKNFVTKVSVGEFVGEGEGKSKKISKKNAAIAVLEEL ... -0.707
2. KSEISQVFEIALKRNLPVNFEVARESGPPHMKNFVTKVSVGEFVGEGEGKSKKISKKNARIAVLEEL ... -0.882
3. KSEISQVFEIALKRNLPVNCEVARESGPPHMKNFVTKVSVGEFVGEGEGKSKKISKKNAAIAVLEEL ... -0.361
4. KSEISQVFEIALKRNLPVVFEVARESGPPHMKNFVTKVSVGEFVGEGEGKSKKISKKNAAIAVLEEL ... -0.101
5. KSEISQVFEIALKQNLPVNFEVARESGPPHMKNFVTKVSVGEFVGEGEGKSKKISKKNAAIAVLEEL ... -0.188
6. KSEISQVFEIALKRNLPVNFEVARSSGPPHMKNFVTKVSVGEFVGEGEGKSKKISKKNAAIAVLEEL ... 0.002

Pending variant:
May I ask what abundance fitness has been recorded for `KSEISQVFEIALKRNLPVNFEVARESGPPHMKNSVTKVSVGEFVGEGEGKSKKISKKNAAIAVLEEL` ? -0.54
